SUBJECT_OF_TEST: Serine/threonine-protein kinase STK11 (Homo sapiens, UniProt Q15831)
Sequence (Q15831 whole entry): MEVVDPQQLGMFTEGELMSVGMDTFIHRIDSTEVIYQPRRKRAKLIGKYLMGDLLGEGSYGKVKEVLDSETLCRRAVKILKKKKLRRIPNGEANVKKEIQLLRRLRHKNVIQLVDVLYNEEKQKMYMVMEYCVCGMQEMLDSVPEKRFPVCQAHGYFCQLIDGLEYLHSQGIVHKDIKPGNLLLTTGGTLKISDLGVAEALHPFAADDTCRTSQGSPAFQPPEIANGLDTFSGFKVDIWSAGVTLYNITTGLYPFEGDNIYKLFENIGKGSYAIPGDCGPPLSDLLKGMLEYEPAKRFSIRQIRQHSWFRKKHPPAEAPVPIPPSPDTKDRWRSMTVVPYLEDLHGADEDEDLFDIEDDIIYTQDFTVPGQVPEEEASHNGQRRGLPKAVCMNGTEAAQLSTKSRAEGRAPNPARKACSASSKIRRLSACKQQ
The source made the active and inactive calls.
I would appreciate it if you answered using one of these outcomes: TRUE for active, FALSE for inactive

I'd appreciate the recorded outcome for COc1cc2nccc(Oc3ccc(NC(=O)C4(C(=O)Nc5ccc(F)cc5)CC4)cc3)c2cc1OC [CABOZANTINIB] from this test.
FALSE

I'd appreciate the recorded outcome for Cc1cc(C(=O)Nc2cc(Oc3ccc4nc(NC(=O)C5CC5)cn4n3)ccc2C)n(C)n1 from this test.
FALSE

I'd appreciate the recorded outcome for Cn1c(=O)c(F)c(Nc2ccc(I)cc2F)c2c(=O)n(C[C@@H](O)CO)cnc21 from this test.
FALSE

I'd appreciate the recorded outcome for C#Cc1cccc(Nc2ncnc3cc4c(cc23)OCCOCCOCCO4)c1 from this test.
FALSE

I'd appreciate the recorded outcome for CCc1nc(C(N)=O)c(Nc2ccc(N3CCC(N4CCN(C)CC4)CC3)c(OC)c2)nc1NC1CCOCC1 from this test.
FALSE

I'd appreciate the recorded outcome for C[C@]1(O)C[C@@H](c2nc(-c3ccc4ccc(-c5ccccc5)nc4c3)c3c(N)nccn32)C1 from this test.
FALSE

I'd appreciate the recorded outcome for O=C(O)c1ccc2c(c1)nc(Nc1cccc(Cl)c1)c1ccncc12 from this test.
FALSE

I'd appreciate the recorded outcome for CN1CCN(c2nc(C3=C(c4c[nH]c5ccccc45)C(=O)NC3=O)c3ccccc3n2)CC1 from this test.
FALSE

I'd appreciate the recorded outcome for CC(C)(O)CC(=O)NCCn1ccc2ncnc(Nc3ccc(Oc4cccc(C(F)(F)F)c4)c(Cl)c3)c21 from this test.
FALSE

I'd appreciate the recorded outcome for O[C@H]1CC[C@H](Nc2ncc3nc(Nc4c(F)cc(F)cc4F)n([C@H]4CCOC4)c3n2)CC1 from this test.
FALSE

I'd appreciate the recorded outcome for COCCN1CCN(Cc2ccc(-c3n[nH]c4c3C(=O)c3c(NC(=O)NN5CCOCC5)cccc3-4)cc2)CC1 from this test.
FALSE

I'd appreciate the recorded outcome for CC[C@@](C)(Nc1ccnc(-c2c[nH]c3ncccc23)n1)C(=O)NCC(F)(F)F from this test.
FALSE

I'd appreciate the recorded outcome for COc1cc2ncnc(Nc3ccc(F)c(Cl)c3)c2cc1NC(=O)/C=C/CN1CCCCC1 [DACOMITINIB ANHYDROUS] from this test.
FALSE

I'd appreciate the recorded outcome for Cn1cc(-c2[nH]c3cc(NC(=O)[C@H](N)C4CCCCC4)cc4c3c2C=NNC4=O)cn1 from this test.
TRUE

I'd appreciate the recorded outcome for O=C(NOC[C@H](O)CO)c1ccc(F)c(F)c1Nc1ccc(I)cc1F from this test.
FALSE
